# System: human SMAD7 mRNA
# PROTOCOL NOTES: Antisense inhibition of human SMAD7 mRNA expression in Hep3B cells by 3-10-3 cEt gapmers, 10,000 nM, electroporation (Example 2)
# Type: cell-based
# EXPERIMENTAL CONDITIONS: Hep3B cells, electroporation with 10,000 nM antisense oligonucleotide, approximately 24 hours, primer probe set RTS5062, relative to untreated control cells
Strand notation (5' to 3'): a small letter for the sugar, then the base; units joined by * are phosphorothioate-linked, units joined directly phosphodiester-linked; [ ] holds rarer units or linkages, { } end groups; capitals alone tell only the bases. k = constrained ethyl (cEt); [5mC] = 5-methylcytosine; d = 2'-deoxy (DNA)
Quick reference: % inhibition of SMAD7 mRNA expression of the listed items.
ATTRIBUTE MEASURED: % inhibition of SMAD7 mRNA expression (%)

# SUBSTANCE, ASSAYED TARGET, ATTRIBUTE MEASURED, DISPLAY UNIT, OBSERVED VALUE
data = [
    ("799046 (antisense kG*kG*k[5mC]*dT*dT*dT*d[5mC]*d[5mC]*d[5mC]*dA*dG*dG*d[5mC]*kT*kG*kG) [compound 799046]", "human SMAD7 mRNA", "% inhibition of SMAD7 mRNA expression", "%", 0),
    ("798947 (antisense kA*k[5mC]*kA*dG*dA*dA*d[5mC]*dA*d[5mC]*dA*dA*dA*d[5mC]*kG*kA*kG) [compound 798947]", "human SMAD7 mRNA", "% inhibition of SMAD7 mRNA expression", "%", 52),
    ("798984 (antisense kG*k[5mC]*k[5mC]*d[5mC]*d[5mC]*d[5mC]*d[5mC]*dT*dT*d[5mC]*dA*dT*dA*k[5mC]*kA*k[5mC]) [compound 798984]", "human SMAD7 mRNA", "% inhibition of SMAD7 mRNA expression", "%", 64),
    ("799183 (antisense k[5mC]*kT*kT*dT*dG*dT*dA*dG*dT*dT*dA*dG*dA*kA*kA*kA) [compound 799183]", "human SMAD7 mRNA", "% inhibition of SMAD7 mRNA expression", "%", 0),
    ("799437 (antisense k[5mC]*k[5mC]*kA*dG*dA*dT*d[5mC]*dT*d[5mC]*dA*dG*dG*dT*k[5mC]*kA*kA) [compound 799437]", "human SMAD7 mRNA", "% inhibition of SMAD7 mRNA expression", "%", 26),
]
